assay: AUC (0 to infinity) in Sprague-Dawley rat at 5 mg/kg, po; format: ADME, organism-based; set-up: time infinity, dose 5 mg/kg, route oral; details: plasma
measurement_type: AUC(0-inf) (µg·h/mL)
Return type: number; implicit unit µg·h/mL.

Query (compound): Cc1cccc(C)c1-n1c(=O)c2cnc(Nc3ccc(N4CCN(C)CC4)cc3)nc2n2c3ccccc3nc12 ; field requested: AUC(0-inf)
0.862

====

target: Tyrosine-protein kinase SYK (Homo sapiens)
measurement_type: IC50 (nM)
Hi! Could you send only the number? It should be in nM, unit omitted.

Need IC50 of Cc1cccc(C)c1-n1c(=O)c2cnc(Nc3ccc(N4CCN(C)CC4)cc3)nc2n2c3ccccc3nc12 , thanks.
200

====

Lab note: pIC50 readings collected with Proto-oncogene tyrosine-protein kinase Src (Homo sapiens, UniProt P12931) for the following compounds.
Sequence (P12931 2-536 limits assumed): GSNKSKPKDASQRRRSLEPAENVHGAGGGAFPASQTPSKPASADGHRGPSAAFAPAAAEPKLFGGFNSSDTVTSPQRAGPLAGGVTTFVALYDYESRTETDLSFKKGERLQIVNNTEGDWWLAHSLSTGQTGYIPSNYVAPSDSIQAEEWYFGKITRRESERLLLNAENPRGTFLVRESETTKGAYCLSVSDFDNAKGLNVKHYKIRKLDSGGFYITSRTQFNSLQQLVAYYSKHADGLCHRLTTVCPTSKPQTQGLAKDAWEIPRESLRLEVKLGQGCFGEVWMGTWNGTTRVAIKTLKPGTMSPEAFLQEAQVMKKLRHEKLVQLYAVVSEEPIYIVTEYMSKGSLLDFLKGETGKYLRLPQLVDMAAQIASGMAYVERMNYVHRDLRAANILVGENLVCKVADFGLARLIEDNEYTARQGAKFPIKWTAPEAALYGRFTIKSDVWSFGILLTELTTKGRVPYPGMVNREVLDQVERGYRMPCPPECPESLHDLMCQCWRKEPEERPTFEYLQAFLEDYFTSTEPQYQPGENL
Notebook: values listed as pIC50 are -log10 of the concentration (mol/L).

Sample records with pIC50:
Please give the measured pIC50 for this compound: COc1cc(Nc2ncc3c(=O)n(-c4c(C)cccc4C)c4nc5ccccc5n4c3n2)ccc1N1CCN(C)CC1
7.00

Another compound to check: COc1cc(Nc2ncc3c(=O)n(-c4c(C)cccc4C)c4nc5ccccc5n4c3n2)cc(OC)c1OCCCN1CCN(C)CC1
7.15

---
Please give the measured pIC50 for this compound: Cc1cccc(C)c1-n1c(=O)c2cnc(Nc3ccc(OCCN4CCN(C)CC4)c(F)c3)nc2n2c3ccccc3nc12
6.80

Try the compound Cc1cccc(C)c1-n1c(=O)c2cnc(Nc3ccc(OCCCN4CCCCC4)cc3)nc2n2c3ccccc3nc12
6.80
